Molecular target: CGRP antigen
Assay: cell-based or functional assay
The threshold is 0.09 µg/mL. Values of IC50 beneath it are tagged Met; values meeting or exceeding it are tagged Not met.

hu236 (antibody, V domains shown, 3C1 HC-4/3C1 LC-3) VH: QVQLVQSGAEVKKPGASVKVSCKASGYTFTGYTMNWVRQAPGQGLEWMGLINPYIGNTHYNQKFKDRVTFTVDRSSSTAYMELSRLRSDDTAVYYCARELDSGFDYWGQGTLVTVSS VL: DVVMTQSPDSLAVSLGERATINCRSSQNIVHSNGDTYLEWYQQKPGQPPKLLIYKVSNRFSGVPDRFSGSGSGTDFTLTISSLQAEDVAVYYCYQGSHVPWTFGQGTKLEIK: Met
hu228 (antibody, human IgG4 S228P, kappa, V domains shown) VH: QVQLVQSGAEVKKPGASVKVSCKASGYTFTGYTMNWVRQAPGQRLEWMGLINPYIGNTHYNQKFKDRVTFTVDRSSSTAYMELSSLRSEDTAVYYCARELDSGFDYWGQGTLVTVSS VL: DVVMTQSPDSLAVSLGERATINCRSSQNIVHSNGDTYLEWYQQKPGQPPKLLIYKVSNRFSGVPDRFSGSGSGTDFTLTISSLQAEDVAVYYCYQGSHVPWTFGQGTKLEIKR: Met
hu66 (antibody, V domains shown, 1F5 HC-4/1A2 LC2-1) VH: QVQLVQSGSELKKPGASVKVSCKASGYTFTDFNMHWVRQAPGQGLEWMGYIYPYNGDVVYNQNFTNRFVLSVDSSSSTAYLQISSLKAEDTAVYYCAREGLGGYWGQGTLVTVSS VL: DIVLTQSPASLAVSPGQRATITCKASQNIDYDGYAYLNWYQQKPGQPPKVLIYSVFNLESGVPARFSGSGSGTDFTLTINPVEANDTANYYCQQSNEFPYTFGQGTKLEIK: Met
hu223 (antibody, V domains shown, 3C1 HC-1/3C1 LC-2) VH: QVQLVQSGAEVKKPGASVKVSCKASGYSFTGYTMNWVRQAPGQRLEWMGLINPYIGNTHYNQKFKDRVTFTVDRSSSTAYMELSSLRSEDTAVYYCARELDSGFDYWGQGTLVTVSS VL: DVVMTQTPLSLSVTPGQPASISCRSSQNIVHSNGDTYLEWYLQKPGQSPQLLIYKVSNRFSGVPDRFSGSGSGTDFTLKISRVEAEDVGVYYCYQGSHVPWTFGQGTKLEIK: Met

[Q] Input hu86 (antibody, V domains shown, 1F5 HC-5/1F5 LC1-4) VH: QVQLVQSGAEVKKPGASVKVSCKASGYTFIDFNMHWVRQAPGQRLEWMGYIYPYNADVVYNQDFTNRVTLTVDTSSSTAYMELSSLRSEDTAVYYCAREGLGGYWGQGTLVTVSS VL: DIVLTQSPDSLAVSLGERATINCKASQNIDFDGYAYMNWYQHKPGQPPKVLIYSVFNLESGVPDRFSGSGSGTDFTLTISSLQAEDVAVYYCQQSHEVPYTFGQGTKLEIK ; condition: IC50 strictly below 0.09 µg/mL. Does it hold?
[A] Not met

[Q] Input hu100 (antibody, V domains shown, 2A2 HC-1/2B8 LC2-1) VH: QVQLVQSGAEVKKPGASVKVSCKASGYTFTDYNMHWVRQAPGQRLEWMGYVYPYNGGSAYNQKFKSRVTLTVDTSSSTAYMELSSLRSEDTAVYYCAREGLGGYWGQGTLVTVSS VL: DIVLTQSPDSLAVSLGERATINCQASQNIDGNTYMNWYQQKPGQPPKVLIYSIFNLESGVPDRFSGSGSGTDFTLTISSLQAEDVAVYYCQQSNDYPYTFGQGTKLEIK ; condition: IC50 strictly below 0.09 µg/mL. Does it hold?
[A] Not met

[Q] Input hu63 (antibody, V domains shown, 1F5 HC-3/3E5 LC-1) VH: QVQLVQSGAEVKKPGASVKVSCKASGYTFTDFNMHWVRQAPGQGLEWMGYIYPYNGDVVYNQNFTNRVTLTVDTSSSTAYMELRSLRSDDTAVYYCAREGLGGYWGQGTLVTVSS VL: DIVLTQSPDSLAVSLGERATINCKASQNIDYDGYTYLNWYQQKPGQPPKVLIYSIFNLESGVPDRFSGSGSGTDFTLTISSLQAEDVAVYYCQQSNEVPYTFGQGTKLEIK ; condition: IC50 strictly below 0.09 µg/mL. Does it hold?
[A] Met

[Q] Input hu151 (antibody, V domains shown, 3E5 HC-1/1F5 LC1-4) VH: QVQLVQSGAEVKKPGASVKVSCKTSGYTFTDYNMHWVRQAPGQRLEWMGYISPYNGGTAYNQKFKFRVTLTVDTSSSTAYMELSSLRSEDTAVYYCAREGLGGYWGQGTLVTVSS VL: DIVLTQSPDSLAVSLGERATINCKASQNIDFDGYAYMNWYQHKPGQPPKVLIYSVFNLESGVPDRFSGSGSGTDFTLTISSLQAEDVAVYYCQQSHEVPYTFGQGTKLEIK ; condition: IC50 strictly below 0.09 µg/mL. Does it hold?
[A] Met

[Q] Input hu87 (antibody, V domains shown, 1F5 HC-5/2B8 LC2-1) VH: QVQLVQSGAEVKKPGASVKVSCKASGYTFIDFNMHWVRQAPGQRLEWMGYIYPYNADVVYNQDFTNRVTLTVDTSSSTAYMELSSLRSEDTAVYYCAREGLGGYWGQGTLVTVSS VL: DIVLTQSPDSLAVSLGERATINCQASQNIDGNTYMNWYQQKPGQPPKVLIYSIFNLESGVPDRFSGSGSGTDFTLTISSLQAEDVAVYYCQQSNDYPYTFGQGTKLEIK ; condition: IC50 strictly below 0.09 µg/mL. Does it hold?
[A] Not met

These data points were gathered from patent US20260125454A1.
